- target-under-test: EGFR exon 20 FQEA Ins A763_V764 (Ba/F3 cells) (Homo sapiens, UniProt P00533, INS763FQEA)
- Construct: expressed in transfected cells; host or cells: Ba/F3 (murine pro-B cells), retroviral transduction, puromycin selection, IL3-independent pool
- Sequence (P00533 with tags, fused parts or gaps INS763FQEA): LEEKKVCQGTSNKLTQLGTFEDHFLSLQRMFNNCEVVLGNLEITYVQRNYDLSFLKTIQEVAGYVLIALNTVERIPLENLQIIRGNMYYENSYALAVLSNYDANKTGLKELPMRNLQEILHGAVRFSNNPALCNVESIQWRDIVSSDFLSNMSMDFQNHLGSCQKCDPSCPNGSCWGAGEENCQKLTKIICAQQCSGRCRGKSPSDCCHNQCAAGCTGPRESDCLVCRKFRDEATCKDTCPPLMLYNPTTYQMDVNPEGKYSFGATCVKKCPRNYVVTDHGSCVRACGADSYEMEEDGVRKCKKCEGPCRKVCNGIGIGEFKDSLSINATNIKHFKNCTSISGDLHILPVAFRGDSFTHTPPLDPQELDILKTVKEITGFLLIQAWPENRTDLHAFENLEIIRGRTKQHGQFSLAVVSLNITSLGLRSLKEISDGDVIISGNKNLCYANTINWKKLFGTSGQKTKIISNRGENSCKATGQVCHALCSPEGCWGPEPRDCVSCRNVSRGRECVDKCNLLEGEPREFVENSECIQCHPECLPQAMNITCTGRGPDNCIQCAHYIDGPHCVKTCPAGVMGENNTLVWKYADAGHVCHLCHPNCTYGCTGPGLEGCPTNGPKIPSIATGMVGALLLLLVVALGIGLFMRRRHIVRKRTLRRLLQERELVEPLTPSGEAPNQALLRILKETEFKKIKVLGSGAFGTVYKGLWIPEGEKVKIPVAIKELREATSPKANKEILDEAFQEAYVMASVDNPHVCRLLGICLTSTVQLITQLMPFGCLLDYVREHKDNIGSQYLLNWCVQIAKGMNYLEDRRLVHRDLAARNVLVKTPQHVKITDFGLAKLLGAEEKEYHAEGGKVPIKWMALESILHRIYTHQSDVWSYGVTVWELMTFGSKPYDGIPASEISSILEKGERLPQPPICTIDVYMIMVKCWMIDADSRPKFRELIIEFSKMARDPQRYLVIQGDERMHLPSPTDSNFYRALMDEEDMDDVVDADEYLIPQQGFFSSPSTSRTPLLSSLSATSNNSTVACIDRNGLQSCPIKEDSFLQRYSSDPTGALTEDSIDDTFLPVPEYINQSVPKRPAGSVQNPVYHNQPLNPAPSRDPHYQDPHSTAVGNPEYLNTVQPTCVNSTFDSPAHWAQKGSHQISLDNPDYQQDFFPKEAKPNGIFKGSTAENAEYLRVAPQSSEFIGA
- assay: Inhibitor activity on EGFR-dependent cell growth (CellTiter-Glo, 72 h), Ba/F3 EGFR exon 20 FQEA Ins
- Type: cell-based
- conditions: read-out: BaF3 FQEA IC50

{"columns": ["compound", "IC50"],
 "data": [
  ["COc1c(Cl)cccc1Nc1c(-c2ccnc3ccc(OC4CC(F)(F)C4)nc23)[nH]c2c1C(=O)NCC2 [Compound 766]", "< 0.1 µM"],
  ["Cc1ccc2nccc(-c3[nH]c4c(c3Nc3cccc(F)c3C)C(=O)NCC4)c2n1 [Compound 810]", "< 0.1 µM"],
  ["Cc1c(Cl)cccc1Nc1c(-c2ccnc(N)n2)[nH]c2c1C(=O)NCC2 [compound 725, trifluoroacetic acid]", "0.1 to 1 µM"],
  ["COc1c(F)cccc1Nc1c(-c2ccnc3ccc(C)nc23)[nH]c2c1C(=O)NCC2 [Compound 809]", "< 0.1 µM"],
  ["COc1c(Cl)cccc1Nc1c(-c2ccnc(NC[C@H]3COCCO3)n2)[nH]c2c1C(=O)NCC2 [compound 723]", "> 1 µM"],
  ["COc1c(Cl)cccc1Nc1c(-c2ccnc3ccc(OC4CC4)nc23)[nH]c2c1C(=O)NC[C@H]2C [Compound 769]", "< 0.1 µM"],
  ["COCC[C@H]1CNC(=O)c2c1[nH]c(-c1ccncc1F)c2Nc1cccc(F)c1OC [421a]", "0.1 to 1 µM"],
  ["Nc1nccc(-c2[nH]c3c(c2Nc2cccc4ccoc24)C(=O)NCC3)n1 [compound 307]", "> 1 µM"]
]}
